- System: carbachol-induced airway contraction
- assay_remarks: Test of rat airway contraction (carbachol-induced rise in airway pressure)
- Assay type: in vivo
- protocol_conditions: evaluation after 24 hours from administration into the trachea of 0.5 μg/kg of a drug
I'd appreciate it if you could supply Inhibition rate, carbachol-induced airway contraction inhibitory action values for the items below.
Please report the result as a number followed by the unit.

{"compound": "O=C(Nc1ncsc1-c1ccccc1)OC12CC[N+](CCc3ccccc3)(CC1)CC2", "reported": "61%"}
{"compound": "C[N+]12CCC(OC(=O)Nc3ncsc3-c3cc(F)ccc3F)(CC1)CC2.[I-]", "reported": "64%"}
{"compound": "O=C(Nc1ccsc1-c1ccccc1)OCC1C[N+]2(CCCc3ccccc3)CCC1CC2 (stereo not shown)", "reported": "64%"}

Inquiry: Read the entry C[N+]12CCC(OC(=O)Nc3ncsc3-c3cccc(Cl)c3)(CC1)CC2 and write its reported Inhibition rate, carbachol-induced airway contraction inhibitory action.
Reply text: 82%
